assayed-system: Human immunodeficiency virus type 1 reverse transcriptase (Human immunodeficiency virus 1)
assay-remarks: Inhibition of HIV1 recombinant reverse transcriptase by NCI assay
# pIC50 values compiled below
pIC50 field: float, defined as -log10 of concentration (mol/L).

Sample records with pIC50:
CC1(C)CC[C@]2(C(=O)O)CC=C3[C@]4(C)CC[C@H]5C(C)(C)[C@H](O)[C@@H](OC(=O)c6ccc(O)cc6)C[C@]5(C)[C@H]4CC[C@@]3(C)[C@H]2C1 : 4.40
CC1(C)CC[C@]2(C(=O)O)CC=C3[C@]4(C)CC[C@H]5C(C)(C)[C@@H](OC(=O)c6ccc(O)cc6)CC[C@]5(C)[C@H]4CC[C@@]3(C)[C@H]2C1 : 3.70

--- query ---
Prompt line: Entry CC1(C)CC[C@]2(C(=O)O)CC=C3[C@]4(C)CC[C@H]5C(C)(C)[C@@H](OC(=O)c6ccc(O)cc6)[C@H](OC(=O)c6ccc(O)cc6)C[C@]5(C)[C@H]4CC[C@@]3(C)[C@H]2C1 needs its pIC50 filled in; supply it.
Response line: 4.22
